# TARGET_OR_TEST_SYSTEM: 17-beta-hydroxysteroid dehydrogenase type 1 (Homo sapiens)
# Sequence (whole entry): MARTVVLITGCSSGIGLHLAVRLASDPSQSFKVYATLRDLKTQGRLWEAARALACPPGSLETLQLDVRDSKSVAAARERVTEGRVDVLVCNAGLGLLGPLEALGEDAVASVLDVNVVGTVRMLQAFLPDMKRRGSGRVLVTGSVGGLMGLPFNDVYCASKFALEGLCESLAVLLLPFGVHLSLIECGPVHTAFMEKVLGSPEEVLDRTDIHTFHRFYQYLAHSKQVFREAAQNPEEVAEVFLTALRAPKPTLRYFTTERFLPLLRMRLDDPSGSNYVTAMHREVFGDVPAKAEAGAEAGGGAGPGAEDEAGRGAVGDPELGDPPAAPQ
# ASSAY_TEXT: Inhibition of human recombinant 17beta-HSD1 at 1 uM by cell-free assay
# Assay type: single protein
READOUT_TYPE: inhibition (%)

1. O=CC1=C(Cl)c2sc3nc4n(c(=O)c3c2CC1)CCC4 ... 26.1
2. CCCSC1=C(C=O)CCc2c1sc1ncn(C)c(=O)c21 ... 55.8
3. CCCSC1=C(C=O)CCc2c1sc1nc3n(c(=O)c21)CCC3 ... 67.2
4. O=CC1=C(Sc2cccc(O)c2)c2sc3nc4n(c(=O)c3c2CC1)CCCCC4 ... 96.5
5. CC(C)SC1=C(C=O)CCc2c1sc1nc3n(c(=O)c21)CCCCC3 ... 92.9
6. O=CC1=C(SCCC(=O)O)c2sc3nc4n(c(=O)c3c2CC1)CCCCC4 ... 2.8
7. CCCSC1=C(/C=C/C(C)=O)CCc2c1sc1nc3n(c(=O)c21)CCCCC3 ... 13.9
8. CC(C)(C)SC1=C(C=O)CCc2c1sc1nc3n(c(=O)c21)CCCCC3 ... 89.6
9. CCSC1=C(C=O)CCc2c1sc1nc3n(c(=O)c21)CCCCC3 ... 94.5
10. CCCSC1=C(C=O)CCCc2c1sc1nc3n(c(=O)c21)CCCCC3 ... 87
11. O=CC1=C(Sc2ccncc2)c2sc3nc4n(c(=O)c3c2CC1)CCCCC4 ... 87.2
12. O=CC1=C(Sc2ccccc2O)c2sc3nc4n(c(=O)c3c2CC1)CCCCC4 ... 91.3
13. O=CC1=C(Sc2ccc(C(=O)O)cc2)c2sc3nc4n(c(=O)c3c2CC1)CCCCC4 ... 22.1
14. O=CC1=C(Sc2ccc(O)cc2)c2sc3nc4n(c(=O)c3c2CC1)CCCCC4 ... 1.8
15. CCCSC1=C(/C=N/O)CCc2c1sc1nc3n(c(=O)c21)CCCCC3 ... 2.9
16. O=CC1=C(SCC(=O)N2CCOCC2)c2sc3nc4n(c(=O)c3c2CC1)CCCCC4 ... 7.8
17. COc1ccc(SC2=C(C=O)CCc3c2sc2nc4n(c(=O)c32)CCCCC4)cc1 ... 89.8
18. CCCSc1c(CO)ccc2c1sc1nc3n(c(=O)c12)CCCCC3 ... 85.9
19. CCCCSC1=C(C=O)CCc2c1sc1nc3n(c(=O)c21)CCCCC3 ... 93.4
20. O=CC1=C(Sc2ccccc2)c2sc3nc4n(c(=O)c3c2CC1)CCCCC4 ... 85.1
21. Cc1ccc(SC2=C(C=O)CCc3c2sc2nc4n(c(=O)c32)CCCCC4)cc1 ... 80.6
22. CCCSc1c(C=O)ccc2c1sc1nc3n(c(=O)c12)CCCCC3 ... 90.6

----------
# TARGET_OR_TEST_SYSTEM: 17-beta-hydroxysteroid dehydrogenase type 2 (Homo sapiens)
# ASSAY_TEXT: Inhibition of human recombinant 17beta-HSD2 at 1 uM by cell-free assay
READOUT_TYPE: inhibition

1. CCSC1=C(C=O)CCc2c1sc1nc3n(c(=O)c21)CCCCC3 ... 2%
2. O=CC1=C(Sc2ccncc2)c2sc3nc4n(c(=O)c3c2CC1)CCCCC4 ... 13.7%

----------
# TARGET_OR_TEST_SYSTEM: 17-beta-hydroxysteroid dehydrogenase type 1 (Homo sapiens) (UniProt P14061)
# ASSAY_TEXT: Inhibition of human recombinant 17beta-HSD1 expressed in human MCF7 cells at 0.1 uM by cell-based assay
READOUT_TYPE: inhibition (%)

1) CCCSC1=C(C=O)CCc2c1sc1nc3n(c(=O)c21)CCCCC3 ... 74
2) CCSC1=C(C=O)CCc2c1sc1nc3n(c(=O)c21)CCCCC3 ... 66.1
3) COc1ccc(SC2=C(C=O)CCc3c2sc2nc4n(c(=O)c32)CCCCC4)cc1 ... 24.6
4) Cc1ccc(SC2=C(C=O)CCc3c2sc2nc4n(c(=O)c32)CCCCC4)cc1 ... 18.9
5) CC(C)SC1=C(C=O)CCc2c1sc1nc3n(c(=O)c21)CCCCC3 ... 71.9
6) CCCSc1c(CO)ccc2c1sc1nc3n(c(=O)c12)CCCCC3 ... 35.6

----------
inhibition by entry:
# TARGET_OR_TEST_SYSTEM: 17-beta-hydroxysteroid dehydrogenase type 1 (Homo sapiens) (UniProt P14061)
# ASSAY_TEXT: Inhibition of human recombinant 17beta-HSD1 expressed in human MCF7 cells at 0.1 uM by cell-based assay
READOUT_TYPE: inhibition

1) O=CC1=C(Sc2cccc(O)c2)c2sc3nc4n(c(=O)c3c2CC1)CCCCC4 ... 52.6%
2) O=CC1=C(SCC(=O)N2CCOCC2)c2sc3nc4n(c(=O)c3c2CC1)CCCCC4 ... 3.9%
3) O=c1c2c3c(sc2nc2n1CCCCC2)CCCC3 ... 10%
4) O=CC1=C(SC2CCCC2)c2sc3nc4n(c(=O)c3c2CC1)CCCCC4 ... 40.3%
5) O=CC1=C(Sc2ccc(O)cc2)c2sc3nc4n(c(=O)c3c2CC1)CCCCC4 ... 36.5%
6) CCCSC1=C(C=O)CCc2c1sc1nc3n(c(=O)c21)CCCCCC3 ... 15.6%
7) CC(C)(C)SC1=C(C=O)CCc2c1sc1nc3n(c(=O)c21)CCCCC3 ... 33.6%
8) O=C1CCCc2c1sc1nc3n(c(=O)c21)CCCC3 ... 6.3%
9) O=c1c2c3c(sc2nc2n1CCCCC2)C(Cl)=C(CO)CC3 ... 25.9%
10) CCCSC1=C(C=O)CCCc2c1sc1nc3n(c(=O)c21)CCCCC3 ... 43.9%

----------
Below: a set of entries, each annotated with reported inhibition.
# TARGET_OR_TEST_SYSTEM: 17-beta-hydroxysteroid dehydrogenase type 1 (Homo sapiens) (UniProt P14061)
# Sequence (whole entry): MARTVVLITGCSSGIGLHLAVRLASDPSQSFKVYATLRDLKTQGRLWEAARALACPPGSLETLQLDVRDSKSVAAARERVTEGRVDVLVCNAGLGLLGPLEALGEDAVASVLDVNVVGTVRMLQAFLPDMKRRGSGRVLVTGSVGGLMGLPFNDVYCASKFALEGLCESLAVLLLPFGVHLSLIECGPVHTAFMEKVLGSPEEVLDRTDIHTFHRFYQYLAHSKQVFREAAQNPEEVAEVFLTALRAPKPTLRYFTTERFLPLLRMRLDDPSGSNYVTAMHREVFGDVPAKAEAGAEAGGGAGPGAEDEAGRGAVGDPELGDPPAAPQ
# ASSAY_TEXT: Inhibition of human recombinant 17beta-HSD1 at 0.1 uM by cell-free assay
# Format: single protein
READOUT_TYPE: inhibition

1) CCCSc1c(C=O)ccc2c1sc1nc3n(c(=O)c12)CCCCC3 ... 83%
2) O=CC1=C(SCCC(=O)O)c2sc3nc4n(c(=O)c3c2CC1)CCCCC4 ... 0.3%
3) O=CC1=C(Sc2ccc(F)cc2)c2sc3nc4n(c(=O)c3c2CC1)CCCCC4 ... 87.4%
4) O=CC1=C(SC2CCCC2)c2sc3nc4n(c(=O)c3c2CC1)CCCCC4 ... 46.6%
5) CCCSC1=C(/C=N/O)CCc2c1sc1nc3n(c(=O)c21)CCCCC3 ... 0.1%
6) CCCSC1=C(C=O)CCc2c1sc1nc3n(c(=O)c21)CCCCCC3 ... 63.3%
7) O=CC1=C(Sc2ccccc2O)c2sc3nc4n(c(=O)c3c2CC1)CCCCC4 ... 85.6%
8) O=CC1=C(Sc2ccc3ccccc3c2)c2sc3nc4n(c(=O)c3c2CC1)CCCCC4 ... 55.2%
9) CCCSC1=C(C=O)CCc2c1sc1nc3n(c(=O)c21)CCCCC3 ... 72.9%
10) CCCSC1=C(/C=C/C(C)=O)CCc2c1sc1nc3n(c(=O)c21)CCCCC3 ... 1.1%
11) O=c1c2c3c(sc2nc2n1CCCCC2)C(Cl)=C(/C=N/O)CC3 ... 4.1%
12) CCCSC1=C(C=O)CCc2c1sc1nc3n(c(=O)c21)CCC3 ... 16.7%
13) O=CC1=C(Sc2cccc(O)c2)c2sc3nc4n(c(=O)c3c2CC1)CCCCC4 ... 94.2%
14) CCCSc1c(CO)ccc2c1sc1nc3n(c(=O)c12)CCCCC3 ... 69%
15) CCCSC1=C(C=O)CCCc2c1sc1nc3n(c(=O)c21)CCCCC3 ... 35.2%
16) CCSC1=C(C=O)CCc2c1sc1nc3n(c(=O)c21)CCCCC3 ... 71.3%
17) CC(C)(C)SC1=C(C=O)CCc2c1sc1nc3n(c(=O)c21)CCCCC3 ... 49.8%
18) O=CC1=C(Sc2ccc(O)cc2)c2sc3nc4n(c(=O)c3c2CC1)CCCCC4 ... 58.5%
19) O=CC1=C(Sc2ccccc2)c2sc3nc4n(c(=O)c3c2CC1)CCCCC4 ... 63.3%
20) O=CC1=C(SC2CCCCC2)c2sc3nc4n(c(=O)c3c2CC1)CCCCC4 ... 51.2%
21) O=CC1=C(Cl)c2sc3nc4n(c(=O)c3c2CC1)CCC4 ... 3.3%
22) O=CC1=C(SCc2ccccc2)c2sc3nc4n(c(=O)c3c2CC1)CCCCC4 ... 7.2%
23) O=c1c2c(nc3n1CCCCC3)sc1c(Sc3ccccc3)c(CO)ccc12 ... 80.5%
24) O=CC1=C(SCC(=O)N2CCOCC2)c2sc3nc4n(c(=O)c3c2CC1)CCCCC4 ... 4%
25) CCCSC1=C(C=O)CCc2c1sc1ncn(C)c(=O)c21 ... 24.3%
26) CC(C)SC1=C(C=O)CCc2c1sc1nc3n(c(=O)c21)CCCCC3 ... 64.7%
27) O=c1c2c3c(sc2nc2n1CCCCC2)CCCC3 ... 8%
28) O=c1c2c3c(sc2nc2n1CCCCC2)C(Cl)=C(CO)CC3 ... 14.5%
29) Cc1ccc(SC2=C(C=O)CCc3c2sc2nc4n(c(=O)c32)CCCCC4)cc1 ... 47%
30) CCCCSC1=C(C=O)CCc2c1sc1nc3n(c(=O)c21)CCCCC3 ... 67.6%
31) O=CC1=C(Sc2ccncc2)c2sc3nc4n(c(=O)c3c2CC1)CCCCC4 ... 79.2%
32) O=CC1=C(Sc2ccc(C(=O)O)cc2)c2sc3nc4n(c(=O)c3c2CC1)CCCCC4 ... 3.8%
33) COc1ccc(SC2=C(C=O)CCc3c2sc2nc4n(c(=O)c32)CCCCC4)cc1 ... 89%
34) O=Cc1ccc2c(sc3nc4n(c(=O)c32)CCCCC4)c1Sc1ccccc1 ... 26.9%
